Every entry's value here was drawn from ChEMBL document CHEMBL1147813.

- System: Human immunodeficiency virus 1
- assay info: Antiviral activity against HIV1
- Format: functional, organism-based
pEC50: −log10 of the molar value.
Response key: true means pEC50 >= 7; false means pEC50 < 7.

mol smiles | category
NNC(=O)c1[nH]c2ccc(Cl)cc2c1S(=O)(=O)c1ccc(F)cc1 | false
NC(=O)c1[nH]c2ccccc2c1S(=O)(=O)c1ccccc1 | false
NC(=O)c1[nH]c2ccccc2c1S(=O)(=O)c1cc(Cl)ccc1N | false
O=[N+]([O-])c1ccc(Cl)cc1-n1ccc2ccccc21 | false
Cc1ccc(S(=O)(=O)c2c(C(=O)NNCCO)[nH]c3ccc(Cl)cc23)cc1 | true
CCOC(=O)c1[nH]c2ccccc2c1Sc1ccccc1N | false
CC(C)(C)c1ccc(Sc2c(C(N)=O)[nH]c3ccc(Cl)cc23)cc1 | false
Cc1ccccc1S(=O)(=O)c1c(C(=O)NCCO)[nH]c2ccc(Cl)cc12 | true

###

- System: Human immunodeficiency virus 1
- assay info: Antiviral activity against HIV1 […] in human macrophages
- Format: functional, organism-based
pEC50: −log10 of the molar value.
Listed molecules paired with reported pEC50

mol smiles | pEC50
Cc1cc(C)cc(S(=O)(=O)c2c(C(=O)NNC(=O)NN)[nH]c3ccc(Cl)cc23)c1 | 8.05
O=C(NN1CCOC1=O)c1[nH]c2ccc(Cl)cc2c1S(=O)(=O)c1ccccc1 | 7.22
Cc1cc(C)cc(S(=O)(=O)c2c(C(=O)NNC3CCCCC3)[nH]c3ccc(Cl)cc23)c1 | 6.70
Cc1cc(C)cc(S(=O)(=O)c2c(C(=O)NNC(C)C)[nH]c3ccc(Cl)cc23)c1 | 8.30
CCOC(=O)NNC(=O)c1[nH]c2ccc(Cl)cc2c1S(=O)(=O)c1cc(C)cc(C)c1 | 8.22
CNNC(=O)c1[nH]c2ccc(Cl)cc2c1S(=O)(=O)c1cc(C)cc(C)c1 | 7.52
CC(=O)NNC(=O)c1[nH]c2ccc(Cl)cc2c1S(=O)(=O)c1cc(C)cc(C)c1 | 8.10

###

- Tested on: Human immunodeficiency virus 1
- assay info: Antiviral activity against HIV1
- Assay type: functional, organism-based
Define the label as MET when EC50 is strictly less than 4 µM and as NOT MET in all remaining cases.

mol smiles | assayed target | category
O=S(=O)(c1ccccc1)n1ccc2ccccc21 | Human immunodeficiency virus 1 | NOT MET
Cc1ccccc1Sc1c(C(N)=O)[nH]c2ccc(Cl)cc12 | Human immunodeficiency virus 1 | MET
CCOC(=O)c1cc2cc(Cl)ccc2n1S(=O)(=O)c1ccc(Cl)cc1 | Human immunodeficiency virus 1 | NOT MET
NNC(=O)c1cc2ccccc2n1S(=O)(=O)c1ccccc1 | Human immunodeficiency virus 1 | NOT MET
Nc1ccccc1-n1ccc2ccccc21 | Human immunodeficiency virus 1 | NOT MET
CCOC(=O)c1cc2ccccc2n1S(=O)(=O)c1ccc(Cl)cc1 | Human immunodeficiency virus 1 | NOT MET
Cc1ccc(S(=O)(=O)c2c(C(=O)NCCO)[nH]c3ccc(Cl)cc23)c(C)c1 | Human immunodeficiency virus 1 | MET
Cc1cccc(S(=O)(=O)c2c(C(=O)NCCO)[nH]c3ccc(Cl)cc23)c1 | Human immunodeficiency virus 1 | MET
Cc1ccccc1Sc1c(C(=O)NNCCO)[nH]c2ccc(Cl)cc12 | Human immunodeficiency virus 1 | MET
CCOC(=O)c1cc2cc(Cl)ccc2n1S(=O)(=O)c1cc(Cl)ccc1N | Human immunodeficiency virus 1 | NOT MET
O=[N+]([O-])c1ccccc1-n1ccc2ccccc21 | Human immunodeficiency virus 1 | NOT MET
NC(=O)c1cc2cc(Cl)ccc2n1S(=O)(=O)c1ccccc1 | Human immunodeficiency virus 1 | NOT MET
NNC(=O)c1[nH]c2ccc(Cl)cc2c1S(=O)(=O)c1ccc(Cl)cc1 | Human immunodeficiency virus 1 | MET
CCOC(=O)c1cn(S(=O)(=O)c2ccccc2)c2ccc(Cl)cc12 | Human immunodeficiency virus 1 | NOT MET
NC(=O)c1[nH]c2ccc(Cl)cc2c1Sc1ccccc1 | Human immunodeficiency virus 1 | MET
Nc1cc(Cl)ccc1-n1ccc2ccccc21 | Human immunodeficiency virus 1 | NOT MET
CCOC(=O)c1cc2cc(Cl)ccc2n1S(=O)(=O)c1ccc(C)cc1 | Human immunodeficiency virus 1 | NOT MET
O=C(NNCCO)c1[nH]c2ccc(Cl)cc2c1Sc1ccccc1 | Human immunodeficiency virus 1 | MET
Nc1ccc(Cl)c(-n2ccc3ccccc32)c1 | Human immunodeficiency virus 1 | MET
CCOC(=O)c1cn(S(=O)(=O)c2ccccc2)c2ccccc12 | Human immunodeficiency virus 1 | NOT MET
Cc1ccc(S(=O)(=O)c2c(C(N)=O)[nH]c3ccc(Cl)cc23)c(C)c1 | Human immunodeficiency virus 1 | MET
NNC(=O)c1[nH]c2ccccc2c1S(=O)(=O)c1ccccc1 | Human immunodeficiency virus 1 | MET
CCOC(=O)c1cc2cc(Cl)ccc2n1S(=O)(=O)c1ccccc1 | Human immunodeficiency virus 1 | NOT MET
NC(=O)c1cn(S(=O)(=O)c2ccccc2)c2ccccc12 | Human immunodeficiency virus 1 | NOT MET
